This collection of values is drawn from patent US20200140489A1.

system_under_test: AgrC-III (Staphylococcus aureus)
Sequence (O33590 1-425): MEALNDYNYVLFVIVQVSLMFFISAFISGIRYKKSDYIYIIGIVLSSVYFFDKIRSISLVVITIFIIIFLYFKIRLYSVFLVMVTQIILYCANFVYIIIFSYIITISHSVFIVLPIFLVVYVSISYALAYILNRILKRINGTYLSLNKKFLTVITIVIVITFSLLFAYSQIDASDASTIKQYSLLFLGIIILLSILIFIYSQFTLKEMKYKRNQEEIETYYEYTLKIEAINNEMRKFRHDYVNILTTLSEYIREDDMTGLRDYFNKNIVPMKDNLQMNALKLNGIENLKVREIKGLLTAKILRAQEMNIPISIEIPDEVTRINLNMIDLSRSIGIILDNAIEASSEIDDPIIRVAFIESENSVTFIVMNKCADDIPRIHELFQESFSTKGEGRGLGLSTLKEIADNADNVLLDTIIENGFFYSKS
assay_info: Hemolysis assay, wild-type group-III strain MN8, rabbit red blood cells
study_conditions: read-out: AgrC-III IC50, selected second-generation analogues, 200 fM − 10 μM
Positions of bridges follow the written chain, without caps; N, C: chain ends. Residues, ends and D or L forms follow the SMILES beside them.
Please note: IC50 exactly at 0.3 nM is Criterion not met. Only values below 0.3 nM get Criterion met.

Does this compound meet the criterion IC50 < 0.3 nM? CC(=O)N[C@H]1CSC(=O)[C@H](CC(C)C)NC(=O)[C@H](CC(C)C)NC(=O)[C@H](Cc2ccccc2)NC(=O)[C@H](C)NC1=O [tAIP-III D2A, Ac-(C-A-F-L-L)] (Ac-CAFLL; thioester 1-C)
Criterion met

Consider CC(=O)N[C@H]1CSC(=O)[C@H](CC(C)C)NC(=O)[C@H](CC(C)C)NC(=O)[C@H](Cc2c[nH]c3ccccc23)NC(=O)[C@H](C)NC1=O [Ac-(C-A-W-L-L)] (Ac-CAWLL; thioester 1-C) . Does its IC50 lie strictly below 0.3 nM?
Criterion not met

Record CC(=O)N[C@H]1CSC(=O)[C@H](CC(C)C)NC(=O)[C@H](CC(C)C)NC(=O)[C@H](Cc2ccc(O)cc2)NC(=O)[C@H](C)NC1=O [tAIP-III D2A/F3Y, Ac-(C-A-Y-L-L)] (Ac-CAYLL; thioester 1-C) : is its IC50 strictly below 0.3 nM?
Criterion met

Would you kindly verify if IC50 of CC[C@H](C)[C@H](N)C(=O)N[C@@H](C)C(=O)N[C@H]1CSC(=O)[C@H](CC(C)C)NC(=O)[C@H](CC(C)C)NC(=O)[C@H](Cc2ccccc2)NC(=O)[C@H](C)NC1=O [AIP-III N2A/D4A, I-A-(C-A-F-L-L)] (H-IACAFLL; thioester 3-C) is strictly less than 0.3 nM?
Criterion met

Determine if CC(C)C[C@@H]1NC(=O)[C@H](Cc2ccccc2)NC(=O)[C@H](C)NC(=O)[C@@H](NC(=O)[C@H](CC(N)=O)NC(=O)[C@H](C)N)CSC(=O)[C@H](CC(C)C)NC1=O [AIP-III I1A/D4A, A-N-(C-A-F-L-L)] (H-ANCAFLL; thioester 3-C) shows IC50 strictly lower than 0.3 nM.
Criterion not met

In plain terms, does CC(C)C[C@@H]1NC(=O)[C@H](Cc2ccccc2)NC(=O)[C@H](C)NC(=O)[C@@H](NC(=O)[C@H](C)NC(=O)[C@H](C)N)CSC(=O)[C@H](CC(C)C)NC1=O [AIP-III I1A/N2A/D4A, A-A-(C-A-F-L-L)] (H-AACAFLL; thioester 3-C) come in under 0.3 nM for IC50?
Criterion met
